Assay: Stability in mouse plasma assessed as compound remaining at 5 uM after 5 hrs by UPLC-MS analysis
Assay type: ADME, cell-free
Conditions: read-out: Stability
property name: remaining at 5 h, 5 µM

### Prompt Supply reported remaining at 5 h, 5 µM belonging to this compound: "CC(C)NC(=O)Nc1ccc2c(c1)C(=O)N([C@H](C)CO)C[C@@H](C)[C@H](CN(C)S(=O)(=O)c1ccc(Cl)cc1)O2"
### Response > 99%

* * *

Measured pIC50 values are reported for all entries that follow.
Target: Scavenger receptor class B member 1 (Mus musculus, UniProt Q61009)
Sequence (Q61009 whole entry): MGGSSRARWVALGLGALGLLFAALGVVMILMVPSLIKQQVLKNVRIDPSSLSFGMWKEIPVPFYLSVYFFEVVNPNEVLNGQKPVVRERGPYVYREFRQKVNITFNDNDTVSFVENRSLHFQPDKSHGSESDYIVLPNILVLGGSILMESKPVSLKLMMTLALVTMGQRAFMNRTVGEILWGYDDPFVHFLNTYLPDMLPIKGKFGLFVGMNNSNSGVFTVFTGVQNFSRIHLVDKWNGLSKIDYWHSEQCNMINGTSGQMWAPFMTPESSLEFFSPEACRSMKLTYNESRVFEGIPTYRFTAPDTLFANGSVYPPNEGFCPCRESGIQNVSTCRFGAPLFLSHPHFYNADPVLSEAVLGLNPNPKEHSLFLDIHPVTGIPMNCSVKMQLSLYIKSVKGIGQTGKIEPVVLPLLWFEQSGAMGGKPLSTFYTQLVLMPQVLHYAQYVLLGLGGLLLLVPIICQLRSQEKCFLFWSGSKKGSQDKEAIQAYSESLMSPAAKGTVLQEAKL
Assay: Inhibition of mouse SR-B1 overexpressed in CHO cells assessed as inhibition of transfer of the fluorescent lipid DiI from HDL particles to cells after 3 hrs
Format: cell-based
pIC50: −log10 of the molar value.

Solved entries:
CNC[C@@H]1Oc2ccc(NC(=O)Cc3cn(C)c4ccccc34)cc2C(=O)N([C@H](C)CO)C[C@H]1C = < 4.60
C[C@@H]1CN([C@H](C)CO)C(=O)c2cc(NC(=O)Cc3cn(C)c4ccccc34)ccc2O[C@H]1CN(C)Cc1ccc(Cl)c(Cl)c1 = < 4.60

### Prompt Respond only with pIC50 recorded for "C[C@@H]1CN([C@H](C)CO)C(=O)c2cc(NC(=O)C3CCCCC3)ccc2O[C@H]1CN(C)C(=O)c1ccc(Cl)cc1"
### Response < 4.60

* * *

This section presents compounds with their documented pIC50 values.
Molecular target: Scavenger receptor class B member 1 (Mus musculus)
Assay: Inhibition of mouse SR-B1 overexpressed in CHO cells assessed as inhibition of transfer of the fluorescent lipid DiI from HDL particles to cells after 3 hrs
Type: cell-based
pIC50 here: minus log base 10 of the concentration, concentration in moles per litre.

C[C@@H]1CN([C@H](C)CO)C(=O)c2cc(NC(=O)Cc3cn(C)c4ccccc34)ccc2O[C@H]1CN(C)S(=O)(=O)c1cccs1 = 5.62
Cc1noc(C)c1S(=O)(=O)Nc1ccc2c(c1)C(=O)N([C@H](C)CO)C[C@@H](C)[C@H](CN(C)S(=O)(=O)c1ccc(Cl)cc1)O2 = 6.72

### Prompt Please give measured pIC50 of the following entry: "C[C@@H]1CN([C@H](C)CO)C(=O)c2cc(NC(=O)Cc3cn(C)c4ccccc34)ccc2O[C@H]1CN(C)C(=O)NC1CCCCC1"
### Response 5.04
